The values you see were collected from paper PMC4447534.

Test system: Vero cells
Experiment: Cytotoxicity for Vero cells
Format: cell-based
Conditions: one experiment in triplicate, means ± S.D.
assay-readout: Cytotoxicity ED50 (µM)
Answer in µM, number only, no unit symbol.

{"compound": "COc1cccc(Oc2cccc(OCCSC#N)c2)c1", "Cytotoxicity ED50 (µM)": 96.2}
{"compound": "N#CSCCOc1ccc(Oc2ccc3ccccc3c2)cc1 [Compound 20, β-Naphtyloxyphenoxyethyl Thiocyanate]", "Cytotoxicity ED50 (µM)": 104.7}

As a next step, examine the compound that follows.
Quick one: Cytotoxicity ED50 for N#CSCCOc1ccc(Oc2ccccc2)cc1 [WC-9, 4-phenoxyphenoxyethyl thiocyanate, reference compound] ?
82.6
